All figures here come from patent US20220372585A1.

assay target: wild-type TyrR (Escherichia coli)
Construct: tyrR (WT)
Sequence (P07604 whole entry): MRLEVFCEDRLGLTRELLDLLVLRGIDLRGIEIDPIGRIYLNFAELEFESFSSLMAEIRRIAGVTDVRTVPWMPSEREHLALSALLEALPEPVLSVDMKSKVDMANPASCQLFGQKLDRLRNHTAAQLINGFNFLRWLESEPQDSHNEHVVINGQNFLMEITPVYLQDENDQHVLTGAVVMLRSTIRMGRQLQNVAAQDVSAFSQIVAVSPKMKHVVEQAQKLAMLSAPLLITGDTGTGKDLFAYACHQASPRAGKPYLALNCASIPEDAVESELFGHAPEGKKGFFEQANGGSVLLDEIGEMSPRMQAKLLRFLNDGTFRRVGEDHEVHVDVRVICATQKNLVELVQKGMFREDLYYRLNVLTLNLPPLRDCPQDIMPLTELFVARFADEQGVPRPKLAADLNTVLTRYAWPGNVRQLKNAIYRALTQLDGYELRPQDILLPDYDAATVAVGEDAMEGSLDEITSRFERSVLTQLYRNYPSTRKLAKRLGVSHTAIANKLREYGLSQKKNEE
assay method text: cell-based
settings: wild-type TyrR; pAGR010; FIG. 1C; 8 h; read-out: KA (half maximal constant)
compounds and their reported EC50
Only the number, expressed in µM, is required.

N[C@@H](Cc1ccc(O)cc1)C(=O)O ... 26

Could you now look at the following compound, please?
**Q:** Report EC50 for N[C@@H](Cc1ccccc1)C(=O)O please.
**A:** 73

* * *

compounds and their reported Fmax
System: TynA-FeaR system
assay method text: microbe, parasite or virus in culture
settings: wild-type TynA and FeaR; pCX008, pHJY022; FIG. 14; 5 h induction
Write the number on its own, no unit after it.

Illustrative cases are given below, each with its answer.
NCCc1ccc(O)c(O)c1 ... 258
NCCc1c[nH]c2ccccc12 ... 57
NCCc1ccc(O)cc1 ... 311

**Q:** Report Fmax for NCCc1ccccc1 please.
**A:** 315

* * *

Tested on: TynA-FeaR system
assay method text: microbe, parasite or virus in culture
settings: wild-type TynA and FeaR; pCX008, pHJY022; FIG. 14; 5 h induction
experimental endpoint: n (Hill coefficient)
Write the number on its own, no unit after it.

**Q:** Report n (Hill coefficient) for NCCc1ccc(O)c(O)c1 please.
**A:** 1.5

**Q:** Report n (Hill coefficient) for NCCc1ccc(O)cc1 please.
**A:** 1.6

**Q:** Report n (Hill coefficient) for NCCc1ccccc1 please.
**A:** 2

**Q:** Report n (Hill coefficient) for NCCc1c[nH]c2ccccc12 please.
**A:** 3.1

* * *

assay target: E274Q+L11G TyrR (Escherichia coli, UniProt P07604, E274Q/L11G)
Construct: expressed in transfected cells; host or cells: E. coli Nissle 1917 (EcN), plasmid pAGR155
Sequence (P07604 whole entry L11G/E274Q): as the sequence (P07604 whole entry) above, with L11G, E274Q counted along it
assay method text: PtyrP-GFP reporter, E274Q+L11G TyrR (pAGR155) in EcN
Type: cell-based, E. coli
Procedure: Everything but (Eb) medium was prepared by supplementing M9 minimal medium with 1 mM MgSO4, […]), 0.4% w/v glucose, and all non-aromatic amino acids (0.8 mM alanine, 5 mM arginine, 0.4 mM asparagine, 0.4 mM aspartate, 0.1 mM cysteine, 0.6 mM glutamate, 0.6 mM glutamine, 0.8 mM glycine, 0.2 mM histidine, 0.4 mM isoleucine, 0.8 mM leucine, 0.4 mM lysine, 0.2 mM methionine, 0.4 mM proline, 10 mM serine, 0.4 mM threonine, and 0.6 mM valine). […]
experimental endpoint: EC50 (µM)
Only the number, expressed in µM, is required.

**Q:** Report EC50 for N[C@@H](Cc1ccccc1)C(=O)O [Phenylalanine, phenylalanine] please.
**A:** 45

* * *

System: wild-type TynA with A81T FeaR
Type: cell-based, E. coli MG1655
settings: wild-type TynA; 1 mM, 24 h; FIG. 21
experimental endpoint: effect of the A81T FeaR mutation on the response of the sensor

NCCc1c[nH]c2ccccc12 ... significantly reduced
NCCc1ccccc1 ... insignificant impact
NCCc1ccc(O)c(O)c1 ... significantly reduced
NCCc1ccc(O)cc1 ... insignificant impact

* * *

assay target: E274Q+D103H TyrR (Escherichia coli, UniProt P07604, D103H/E274Q)
assay method text: PtyrP-GFP reporter, E274Q+D103H TyrR (pAGR158) in EcN
experimental endpoint: EC50
Please give the number followed by its unit.

**Q:** Report EC50 for N[C@@H](Cc1ccccc1)C(=O)O [Phenylalanine, phenylalanine] please.
**A:** 110 µM

* * *

Tested on: wild-type TynA with A81P FeaR
assay method text: microbe, parasite or virus in culture
Assay type: cell-based, E. coli MG1655
settings: Escherichia coli, 5 h, read-out: KA (half maximal constant), wild-type TynA + A81P FeaR; pCX008, pCX025; FIG. 25A; 5 h
experimental endpoint: EC50 (µM)
Only the number, expressed in µM, is required.

**Q:** Report EC50 for NCCc1ccccc1 please.
**A:** 14

* * *

Tested on: TynA-FeaR system
assay method text: microbe, parasite or virus in culture
settings: wild-type TynA and FeaR; pCX008, pHJY022; FIG. 3D; 24 h induction
experimental endpoint: n (Hill coefficient)
Write the number on its own, no unit after it.

Illustrative cases are given below, each with its answer.
NCCc1c[nH]c2ccccc12 [Tryptamine, tryptamine] ... 4.3
NCCc1ccccc1 [Phenylethylamine, phenylethylamine] ... 3.9
NCCc1ccc(O)c(O)c1 [Dopamine, dopamine] ... 3

**Q:** Report n (Hill coefficient) for NCCc1ccc(O)cc1 [Tyramine, tyramine] please.
**A:** 5
